Tested on: MOLT-4 leukemia
Assay: NCI-60 one-dose screen, 48 h (100 = growth as untreated, 0 = no growth, -100 = all killed)
Conditions: 10 µM unless noted
This is part of a sample that, as a whole, favours compounds with a hit. Of some 83,000 tested, about 20% had one in any assay.
Classes are defined on growth with ranges lower level (below 10%), middle level (10% to below 90%), upper level (90% or more)

q: GET /class?item= "Cc1cc(C)c(O)c(CNCCCNCc2cc(C)cc(C)c2O)c1"
a: middle level

q: GET /class?item= CCCCC(CCCCCC(CCCC)C1NC(C)Cc2cc(OC)c(OC)cc21)C1NC(C)Cc2cc(OC)c(OC)cc21 (configuration not stated)
a: lower level

q: GET /class?item= "O=[N+]([O-])c1ccc(O)c(-c2nc3ccccc3s2)c1"
a: middle level

q: GET /class?item= "Cc1nc(-c2ccccc2)sc1CC#N"
a: upper level

q: GET /class?item= CCN(CCNc1ccc(C)c2sc3cc(Cl)ccc3c(=O)c12)CC(C)O (configuration not stated)
a: middle level

q: GET /class?item= "O=c1cc(-c2ccccc2)oc2c(O)c(O)ccc12"
a: middle level

q: GET /class?item= Fc1cc2[nH]ncc2c2c3c(c(-c4cn[nH]c4C(F)(F)F)nc12)C1CCC3C1 (configuration not stated)
a: lower level

q: GET /class?item= "CN(C)C(=S)Sc1ccc([N+](=O)[O-])cc1[N+](=O)[O-]"
a: lower level

q: GET /class?item= "COC(=O)c1cc2c(=O)[nH]cc3c2c(n1)CCC3"
a: upper level

q: GET /class?item= "CCCCCCCCCCCCCCNC(=O)Nc1ccc(Cl)c(Cl)c1"
a: upper level

====

System: RXF 393 renal
Experiment: NCI-60 one-dose screen, 48 h
Conditions: 10 µM unless noted
Compounds without any hit were thinned out: in the full panel of roughly 83,000, 20% have a hit. Active and inactive are the calls of the source. Rule for the calls: active = growth percent below 10; inactive = the rest.
Valid outcomes are listed here; reply with one: active, inactive

q: Tell me the assay call for "Cc1ccc(S(=O)(=O)Oc2ccc(Br)cc2Br)cc1" please.
a: inactive

q: Tell me the assay call for "C=C(C)[C@@H]1CC[C@]2(C(=O)NCCNCCNCCN)CC[C@]3(C)[C@H](CC[C@@H]4[C@@]5(C)CCC(=O)C(C)(C)[C@@H]5CC[C@]43C)[C@@H]12" please.
a: active

q: Tell me the assay call for "NC1=NC(=O)NC1(c1ccccc1)c1ccccc1" please.
a: inactive

q: Tell me the assay call for CCOC(=O)C1=C(C(=O)c2ccc(Br)cc2)C(c2ccc(Br)cc2)NC(=S)N1 (centres undefined) please.
a: inactive

====

Tested on: NCI-H522 lung
Assay: NCI-60 one-dose screen, 48 h (100 = growth as untreated, 0 = no growth, -100 = all killed)
Conditions: 10 µM unless noted
About 83,000 compounds went through this panel and 20% of them were active in at least one assay; those are over-represented in the sample as a whole. Activity calls are given as the source filed them. How the source made its calls: active means growth percent below 10; inactive means the rest.
OBSERVATION TYPE: growth

q: Query growth on NCI-H522 lung for CCOC(=O)c1nn(C2CCCCO2)c2ccc(NS(=O)(=O)c3ccc(C)cc3)cc12 (stereo not given)
a: 98% (inactive)

q: Query growth on NCI-H522 lung for CCCCC(CC)COC(=O)C[N+](C)(C)CCOC(c1ccccc1)c1ccccc1 (stereo not given)
a: -24.5% (active)

q: Query growth on NCI-H522 lung for CCOC(=O)C1=C(C(=O)c2ccc(Br)cc2)C(c2ccc(Br)cc2)NC(=S)N1 (stereo not given)
a: 95.9% (inactive)

q: Query growth on NCI-H522 lung for "CCNc1cc2c(cc1Br)-c1ccccc1C2=O"
a: 93.6% (inactive)

q: Query growth on NCI-H522 lung for "C=C(C)[C@@H]1CC[C@]2(C(=O)N3CCN(C)CC3)CC[C@]3(C)[C@H](CC[C@@H]4[C@@]5(C)C/C(=C/c6ccncc6)[C@H](O)C(C)(C)[C@@H]5CC[C@]43C)[C@@H]12"
a: -46.3% [100 µM] (active)

q: Query growth on NCI-H522 lung for "O=C1Nc2ccccc2/C1=C/C(=O)c1ccc(N2CCCCC2)cc1"
a: 61.7% (inactive)

q: Query growth on NCI-H522 lung for "COc1ncc(-c2ccc3nc(N)n(-c4ccccc4C(F)(F)F)c(=O)c3c2)cc1S(=O)(=O)Nc1ccc(F)cc1F"
a: 46.8% (inactive)

q: Query growth on NCI-H522 lung for C#CC(OC(=O)N(C)C)(c1ccccc1)c1ccc(F)cc1 (stereo not given)
a: 83.2% (inactive)

q: Query growth on NCI-H522 lung for "C=C(C)[C@@H]1CC[C@]2(C(=O)OC)CC[C@]3(C)[C@H](CC[C@@H]4[C@@](C)(CCc5nn[nH]n5)[C@H](C(=C)C)CC[C@]43C)[C@@H]12"
a: -25.3% [100 µM] (active)

q: Query growth on NCI-H522 lung for "CCN(CC)CCCCCCNc1cccc2cc(Br)cnc12"
a: 26.7% (inactive)

q: Query growth on NCI-H522 lung for "Fc1cc2[nH]ncc2c2c3c(c(-c4cn[nH]c4)nc12)CCCC3"
a: -9.92% (active)

q: Query growth on NCI-H522 lung for "CN(C)CCOc1ccc(/C(=C(/CCCl)c2ccccc2)c2ccccc2)cc1"
a: 10.8% (inactive)

q: Query growth on NCI-H522 lung for "CCOC(=O)c1cnc2ccc(Br)cc2c1Nc1cccc(S(N)(=O)=O)c1"
a: 96.6% (inactive)

q: Query growth on NCI-H522 lung for "O=C(CCN1CCCCC1)c1ccc2ccccc2c1"
a: 93.5% (inactive)

q: Query growth on NCI-H522 lung for "COC(=O)c1c(C)[nH]c(/C=C2\N=C(c3ccc[nH]3)C=C2OC)c1C"
a: -60.1% (active)

====

Test system: CCRF-CEM leukemia
Assay: NCI-60 one-dose screen, 48 h
Conditions: 10 µM unless noted
This is part of a sample that, as a whole, favours compounds with a hit. Of some 83,000 tested, about 20% had one in any assay. Activity calls are given as the source filed them. How the source made its calls: active means growth percent below 10; inactive means the rest.
Valid outcomes are listed here; reply with one: 1 (active), 0 (inactive)

q: Tell me the assay call for "CC(C)[C@H]1CCC2=C3CC[C@]45OC(=O)[C@@]6(CCC(C)(C)C[C@H]64)CC[C@@]5(C)[C@]3(C)CC[C@@]21C" please.
a: 0

q: Tell me the assay call for CCOC(=O)c1nn(C2CCCCO2)c2ccc(NC(=O)Cn3nnc4ccccc43)cc12 (stereo not given) please.
a: 0

q: Tell me the assay call for "Cc1cc2c(C(C)C)c(O)c(O)c(C=NCc3ccoc3)c2c(O)c1-c1c(C)cc2c(C(C)C)c(O)c(O)c(C=NCc3ccco3)c2c1O" please.
a: 0

q: Tell me the assay call for CCOC(=O)c1nn(C2CCCCO2)c2ccc(NC(=O)CN3CCOCC3)cc12 (stereo not given) please.
a: 1

q: Tell me the assay call for "Cc1ccc(N)c(O)c1" please.
a: 0

q: Tell me the assay call for "CC(C)CSc1ncnc2nc[nH]c12" please.
a: 0

q: Tell me the assay call for "Cc1c(Cn2cc(COc3ccc(Br)cc3)nn2)c(C)c(Cn2cc(COc3ccc(Br)cc3)nn2)c(C)c1Cn1cc(COc2ccc(Br)cc2)nn1" please.
a: 0

q: Tell me the assay call for "CCOC(=O)c1sc2nc(-c3cc(OC)c(OC)c(OC)c3)nc(N3CCOCC3)c2c1C" please.
a: 0

q: Tell me the assay call for "O=C1Nc2ccccc2/C1=C/C(=O)c1ccc(N2CCCCC2)cc1" please.
a: 1

q: Tell me the assay call for "O=C(O)c1cc([N+](=O)[O-])ccc1Br" please.
a: 0

q: Tell me the assay call for "COc1ncc(-c2ccc3nccc(C#CCCCCC(=O)O)c3c2)cc1NS(=O)(=O)c1ccc(F)cc1F" please.
a: 0

q: Tell me the assay call for "COc1cc2c(cc1OCCCN1CCN(CCCOc3cc4c(cc3OC)C(=O)N3C[C@H](F)C[C@H]3C=N4)CC1)N=C[C@@H]1C[C@@H](F)CN1C2=O" please.
a: 1

q: Tell me the assay call for "COc1ccc(-c2c(C)nn3c(NCCN4CCOCC4)cc(C)nc23)cc1OC" please.
a: 0

q: Tell me the assay call for COc1ccc2c(c1)C(C)Cc1c(ncnc1-n1cnc3ccccc31)N2C (stereo not given) please.
a: 1

q: Tell me the assay call for "C=C(C)[C@@H]1CC[C@]2(C)[C@H](CC[C@@H]3[C@@H]([C@@](C)(O)CCC=C(C)C)CC[C@]32C)[C@@]1(C)CCC(=O)O" please.
a: 1

q: Tell me the assay call for "CN(C)c1ccc(N=Nc2ccc3ccccc3c2)cc1" please.
a: 0

q: Tell me the assay call for "O=C(Nc1ccc(C(=O)/C=C/c2ccc(N3CCOCC3)cc2)cc1)Nc1ccc([N+](=O)[O-])cc1" please.
a: 0

q: Tell me the assay call for "COc1cc2c(c(Br)c1N)-c1cc(Br)c(N)cc1C2=O" please.
a: 0

q: Tell me the assay call for "C[N+](C)(C)c1ncnc2[n-]cnc12" please.
a: 0

q: Tell me the assay call for "CCCc1cc2cc(-n3nc(C)c4c3CC(C)(C)CC4=O)cc(NC3CCSCC3)c2c(=O)[nH]1" please.
a: 0

q: Tell me the assay call for "COc1ccc(C(=O)CSc2nccc(Nc3ccc(C(=O)O)cc3)n2)cc1" please.
a: 0

q: Tell me the assay call for "COC(=O)[C@H](CC(C)C)NC(=O)NC(=O)NC(=O)CI" please.
a: 1

q: Tell me the assay call for "CCCCCCSc1ncnc2nc[nH]c12" please.
a: 0

q: Tell me the assay call for C#CC(OC(=O)N(C)C)(c1ccccc1)c1ccc(F)cc1 (stereo not given) please.
a: 0

q: Tell me the assay call for "Fc1cc2[nH]ncc2c2c3c(c(-c4cn[nH]c4)nc12)CCCC3" please.
a: 1

Cited source: PubChem BioAssay (NCI)
